The reported numbers originate from PubChem BioAssay.

assay: PSAC antagonists in infected red cells, primary screen, cell-based, P. falciparum Indochina, OD700, 2 h (AID 1155);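 further: lysis reports solute entry through the parasite surface anion channel PSAC; channel blockers reduce lysis of infected cells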; conditions: P. falciparum Indochina infected erythrocytes, osmotic lysis OD700; higher = more signal, called active from +8 up or from −8 down
metric name: z-score
I'd appreciate a reply containing only the number, no unit.

In the examples that follow, each entry is paired with its recorded z-score.
CO[C@]12C=C(Br)[C@@H](C[C@@H]1c1ccccc1)[C@@]1(CO1)C2=O :: -0.698
CO[C@H]1COC(=O)[C@@H](C)NC(=O)CC=C[C@@H](C)[C@H](OC)COC(=O)CC=C[C@@H]1C :: -0.211
COC(=O)c1ccc(C#CC(NP(=O)(c2ccccc2)c2ccccc2)c2ccccc2)cc1 (stereo not drawn) :: 1.16
C=C[C@H](OC)[C@@H](OC(=O)Nc1ccc(SC)cc1)c1ccc(OC)c(O)c1 :: 2.11
COC(=O)[C@@]1(Cc2ccccc2N=[N+]=[N-])N=C(c2ccc(OCCCO)cc2)O[C@H]1c1ccccc1CN=[N+]=[N-] :: 8.71

Entry "CCOC(=O)C1=CC[C@@H](c2ccc(-c3ccc(OCc4ccccc4)cc3)c(OC)c2)N(S(=O)(=O)c2ccc(C)cc2)[C@H]1c1ccccc1" : reported z-score = ?
1.86
